- SYSTEM UNDER TEST: human ether-à-go-go-related gene (hERG) potassium channel (human, UniProt Q12809);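 note: peak tail current of the secondary pulse compared with the same well before compound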
- Sequence (Q12809 whole entry, looked up): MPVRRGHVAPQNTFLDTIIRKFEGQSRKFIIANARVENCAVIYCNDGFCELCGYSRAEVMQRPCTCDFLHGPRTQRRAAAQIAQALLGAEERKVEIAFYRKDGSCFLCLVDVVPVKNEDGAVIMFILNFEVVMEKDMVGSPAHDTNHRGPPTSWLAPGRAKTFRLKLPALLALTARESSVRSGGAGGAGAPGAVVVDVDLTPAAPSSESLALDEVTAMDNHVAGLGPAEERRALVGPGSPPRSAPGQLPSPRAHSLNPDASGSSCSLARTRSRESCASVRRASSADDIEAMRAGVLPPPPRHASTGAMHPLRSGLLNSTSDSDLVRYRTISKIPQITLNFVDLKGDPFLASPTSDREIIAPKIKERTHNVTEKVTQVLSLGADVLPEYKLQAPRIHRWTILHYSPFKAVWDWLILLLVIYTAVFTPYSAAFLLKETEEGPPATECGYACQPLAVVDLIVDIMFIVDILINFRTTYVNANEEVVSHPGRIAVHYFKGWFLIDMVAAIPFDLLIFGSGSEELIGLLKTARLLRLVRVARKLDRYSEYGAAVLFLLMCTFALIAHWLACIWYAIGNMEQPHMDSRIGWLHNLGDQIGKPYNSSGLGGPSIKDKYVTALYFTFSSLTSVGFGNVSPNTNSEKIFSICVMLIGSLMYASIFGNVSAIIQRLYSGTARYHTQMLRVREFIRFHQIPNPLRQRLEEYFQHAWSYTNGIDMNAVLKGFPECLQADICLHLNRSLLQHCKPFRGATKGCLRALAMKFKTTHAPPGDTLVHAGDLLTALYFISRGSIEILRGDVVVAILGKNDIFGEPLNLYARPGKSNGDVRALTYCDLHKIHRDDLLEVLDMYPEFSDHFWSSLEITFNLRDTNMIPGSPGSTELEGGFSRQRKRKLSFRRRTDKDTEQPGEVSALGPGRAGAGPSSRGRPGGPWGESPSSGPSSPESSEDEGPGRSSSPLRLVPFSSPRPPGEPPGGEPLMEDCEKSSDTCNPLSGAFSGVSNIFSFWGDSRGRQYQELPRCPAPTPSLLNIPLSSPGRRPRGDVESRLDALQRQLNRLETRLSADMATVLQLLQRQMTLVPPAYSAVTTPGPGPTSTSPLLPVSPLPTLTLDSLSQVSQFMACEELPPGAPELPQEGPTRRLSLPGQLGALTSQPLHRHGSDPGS
- ASSAY SUMMARY: primary screen, population patch clamp on CHO cells stably expressing hERG; higher = less effect of the substance
Hit rate of the full screen: of about 310,000 compounds, about 14,000 (4.5%) showed an effect of 50% or more. The effect is printed as a negative number. The entries come from a sample that favours strong results as a whole.
READOUT: hERG current change (%, negative = inhibition) at 10uM
Include the unit right after the number.

Look over these answered cases.
molecule=COc1cc(N/C(N)=N/c2nc(C)cc(C)n2)c(OC)cc1Cl system_under_test="human ether-à-go-go-related gene (hERG) potassium channel (human, UniProt Q12809)" meas_value=-56.7%
molecule=CCCOc1ccccc1N/C(=N/c1nc(C)cc(C)n1)NC(=O)COc1ccc(OC)cc1 system_under_test="human ether-à-go-go-related gene (hERG) potassium channel (human, UniProt Q12809)" meas_value=-10%
molecule=O=[N+]([O-])c1ccccc1S(=O)(=O)Oc1ccc(C(=S)N2CCOCC2)cc1 system_under_test="human ether-à-go-go-related gene (hERG) potassium channel (human, UniProt Q12809)" meas_value=-75%
molecule=O=C(c1ccccc1Oc1ccc([N+](=O)[O-])cc1)N1CCOCC1 system_under_test="human ether-à-go-go-related gene (hERG) potassium channel (human, UniProt Q12809)" meas_value=-52%
molecule="CC(C)CC(NC(=O)C1CCC(C)CC1)C(=O)NCc1ccccn1 (stereo not drawn)" system_under_test="human ether-à-go-go-related gene (hERG) potassium channel (human, UniProt Q12809)" meas_value=18%

Query: Report hERG current change (%, negative = inhibition) at 10uM for COc1cc(C(=S)N2CCOCC2)ccc1OS(=O)(=O)c1ccccc1[N+](=O)[O-] please.
Reply: -1.24%

Query: Entry Cc1[nH]n2c(=O)c3c(nc2c1-c1ccccc1)CCC3 : reported hERG current change (%, negative = inhibition) at 10uM = ?
Reply: 0.138%

Query: # input molecule: OCCN1CCN(c2nc(-c3ccccc3)nc3c2oc2ccccc23)CC1 ; wanted: its hERG current change (%, negative = inhibition) at 10uM
Reply: -6.34%

Query: Returns the measured hERG current change (%, negative = inhibition) at 10uM for the input molecule. Input: Cc1cc(C)nc(/N=C(\N)Nc2cc([N+](=O)[O-])ccc2C)n1
Reply: -49%

----------
- SYSTEM UNDER TEST: human ether-à-go-go-related gene (hERG) potassium channel (human);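 note: peak tail current of the secondary pulse compared with the same well before compound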
- ASSAY SUMMARY: primary screen, population patch clamp on CHO cells stably expressing hERG; higher = less effect of the substance
Screen size: about 310,000 compounds; about 14,000 (4.5%) showed an effect of 50% or more. Effects have a minus sign here. What follows is part of a selection rich in strong results, with near analogues and random picks from the rest.
READOUT: hERG current change (%, negative = inhibition) at 10uM (%)
Give just the numeric value; % need not be written.

Some entries whose results are on file:
compound=O=C(O)c1ccc(Oc2ccc(C(F)(F)F)cn2)cc1 meas_value=17.5
compound=CC(C)n1nc(C(=O)Oc2ccc(Cl)cc2)c2ccccc2c1=O meas_value=5.39
compound="CCN(CC1COc2ccccc2O1)C(=O)CN1C(=O)NC(C)(c2ccc(C)cc2)C1=O (stereo not shown)" meas_value=-28.8
compound="COc1cc(C(=O)NC2CC(C)(C)Cc3c2cnn3-c2ccccc2)cc(OC)c1OC (stereo not shown)" meas_value=8.92

Query: What value of measured hERG current change (%, negative = inhibition) at 10uM is listed for CC1(C)Cc2c(cnn2-c2cccc(F)c2)C(NC(=O)c2ccc(=O)[nH]n2)C1 (stereo not shown) ?
Reply: -70.2

Query: Please look up its hERG current change (%, negative = inhibition) at 10uM: COc1cccc(C(=O)NC2CC(C)(C)Cc3c2cnn3-c2cccc(F)c2)c1OC (stereo not shown)
Reply: -52.3

Query: Give its hERG current change (%, negative = inhibition) at 10uM value. Item: Cc1cc(C(=O)NC2CC(C)(C)Cc3c2cnn3-c2cccc(F)c2)nn1C (stereo not shown)
Reply: -2.79

Query: # input compound: O=C(O)C(=O)O.O=[N+]([O-])c1ccc(Oc2ccc(C(F)(F)F)cn2)cc1 ; wanted: its hERG current change (%, negative = inhibition) at 10uM
Reply: -53.9
